Test system: SF-295
procedure details: NCI tumour cell line growth inhibition, 48 h
Active and inactive are the calls of the source. No stated cut-off is given here; in the data, active = GI50 up to about 1.1 µM and inactive = higher.
GI50 listing for selected molecules.

Recorded GI50, per entry:
CC1=CC(=O)C(=CN2C(=O)/C(=C\c3cccnc3)NC2=S)C(=O)O1 | > 100 µM (inactive)
Clc1ccc(CSC2=NCCN2)cc1Cl | 36.8 µM (inactive)
CCCCOc1ccc(S(=O)(=O)/N=C(\NN)Nc2ccc(Cl)cc2)cc1 | 23.4 µM (inactive)
CCOC(=O)/C1=C(\C)N(Cc2ccccc2)C(=O)c2ccccc2C(=O)c2c(OC(C)=O)ccc(OC(C)=O)c21 | 29 µM (inactive)

Now, please, on to the next molecule.
[ask] # GI50 lookup, item `Cc1ccc(C(=N)c2ccccc2Cc2cccc3ccccc23)c2ccccc12`
[reply] 71.4 µM (inactive)

---

// reported GI50 per item
System: SF-295
procedure details: NCI tumour cell line growth inhibition, 48 h
Calls of active or inactive are those of the source. Cut-off read from the data, not from the text of the source: active = GI50 up to about 1.1 µM and inactive = higher.

[ask] Requested field: GI50. Item: `CC(=O)c1cc2ccccc2oc1=O`
[reply] > 100 µM (inactive)

[ask] One more compound: Cc1ccc(S(=O)(=O)N/N=C2/C3CC4CCC2C4C3)cc1 (stereo unspecified)
[reply] > 100 µM (inactive)

[ask] Follow-up item: `CSc1nc(C)c2c(n1)N(c1ccc(Cl)cc1)CC2`
[reply] > 100 µM (inactive)

[ask] // next record `CCN(CC)P(=O)(c1ccc2c(c1)OCCOCCOCCOCCO2)N(CC)CC`
[reply] > 100 µM (inactive)

---

Tested on: SNB-75
procedure details: NCI tumour cell line growth inhibition, 48 h
Active and inactive are the calls of the source. No stated cut-off is given here; in the data, active = GI50 up to about 1.1 µM and inactive = higher.
parameter measured: GI50

In the examples that follow, each entry is paired with its recorded GI50.
Oc1ccccc1C(Sc1nc2ccccc2s1)Sc1nc2ccccc2s1 | > 100 µM (inactive)
Cc1cn([C@@H]2O[C@H](CO[Si](C)(C)C(C)(C)C)[C@]3(O[C@H]3C(=O)NN)[C@H]2O[Si](C)(C)C(C)(C)C)c(=O)[nH]c1=O | 7.98 µM (inactive)
O=C1/C(=C/c2cccc([N+](=O)[O-])c2)COc2ccc(Br)cc21 | 55.7 µM (inactive)

[ask] Need GI50, item NC1CC(=O)c2sccc21 (stereo not given)
[reply] > 100 µM (inactive)

[ask] Now this one: `O=c1ss/c(=N\c2ccccc2)n1-c1ccccc1`
[reply] 21.9 µM (inactive)

---

Test system: RXF 393
procedure details: NCI tumour cell line growth inhibition, 48 h
Activity calls are given as the source filed them. Cut-off read from the data, not from the text of the source: active = GI50 up to about 1.1 µM and inactive = higher.
Return exactly one item of yes (1) (active), no (0) (inactive)

# count of solved cases: 4
O=C1/C(=C/c2cccc([N+](=O)[O-])c2)COc2ccc(Br)cc21 | no (0)
CO[C@@H]1C=C[C@@]23c4cc5c(cc4C(=O)O[C@H]2CN(C)[C@H]3C1)OCO5 | no (0)
C=[N+](CNC(=O)CNC(=O)C(Cc1ccccc1)NC(=O)OC(C)(C)C)C(=O)CNC(=O)C(Cc1ccccc1)NC(=O)OC(C)(C)C (configuration not stated) | no (0)
C=CC(=O)N1C/C(=C\c2ccc(F)cc2)C(=O)/C(=C/c2ccc(F)cc2)C1 | yes (1)

[ask] Returns: the outcome recorded for `CN(CCCNC(=O)c1nn(-c2ccc(Cl)cc2Cl)c2c1Cc1ccccc1-2)CCCNC(=O)c1nn(-c2ccc(Cl)cc2Cl)c2c1Cc1ccccc1-2` in this assay.
[reply] no (0)

[ask] `CC(=O)O[C@@H]1[C@H](C(C)C)[C@@H](OC(C)=O)C/C(C)=C/CC[C@]2(C)O[C@@H]12` , same question.
[reply] no (0)

[ask] Here is the next compound: C[C@H](O)C1CC(Cn2nnc3c(N)ncnc32)C1(C)C (some centres not stated)
[reply] no (0)

[ask] Param item: O=C1C2C(C(=O)N1c1ccccc1)C1(Br)c3ccccc3C2(Br)C2C(=O)N(c3ccccc3)C(=O)C21 (configuration not stated)
[reply] no (0)

[ask] What do you get for `CCCCCCCCCCCCCCCCS(=O)(=O)c1ccc(NN)cc1` ?
[reply] no (0)

[ask] Also `C1=N\c2ccc(cc2)/N=C\c2ccc(cc2)OCc2cccc(n2)COc2ccc/1cc2` , if possible.
[reply] no (0)

[ask] // same read-out, input: CC(NC(=O)C(CC(=O)OCc1ccccc1)NC(=O)OCc1ccccc1)c1ccccc1 (configuration not stated)
[reply] no (0)

[ask] Check `COc1ccc(-c2nc(O)c3ccccc3n2)cc1OC` too.
[reply] no (0)

[ask] Now the compound `O=C(COc1cc(=O)oc2ccccc12)c1ccccc1`
[reply] no (0)

[ask] Note, next up: `Cc1cc(C)n(-c2nsc3ccccc23)n1`
[reply] no (0)

---

Tested on: NCI/ADR-RES
procedure details: NCI tumour cell line growth inhibition, 48 h
Active and inactive are the calls of the source. Rule as the data show it: active = GI50 up to about 1.1 µM and inactive = higher.
Pick one and only one: T for active, F for inactive

[ask] // return assay outcome for CCOC(=O)Oc1cc2c(c(OC)c1OC)-c1ccc(SC)c(=O)cc1C(NC(=O)C(F)(F)F)CC2 (stereo not given)
[reply] T

[ask] What about this compound? `CCOP(=O)(OCC)/C(C#N)=C/c1nccn1C`
[reply] F

[ask] Repeat for the following compound: `CCC(=O)C1(c2ccccc2)CCN(C)CC1`
[reply] F

[ask] Next record, please: C=[N+](CNC(=O)CNC(=O)C(Cc1ccccc1)NC(=O)OC(C)(C)C)C(=O)CNC(=O)C(Cc1ccccc1)NC(=O)OC(C)(C)C (stereo not given)
[reply] F

[ask] Moving on to `CC1(C)C=C(/C=N/Nc2ccc([N+](=O)[O-])cc2)C(C#N)=C(O)C1(C#N)C#N`
[reply] F

[ask] Then `Cc1c(CCCl)c(=O)n2c([nH]c3ccccc32)c1C#N` ?
[reply] F

[ask] Input Cc1ccc([N+](=O)[O-])cc1S(=O)(=O)Nc1ccc(C2=NN(S(=O)(=O)c3cc([N+](=O)[O-])ccc3C)C(c3ccccc3O)C2)cc1 (stereo not given)
[reply] F

---

Test system: HCC 2998
procedure details: NCI tumour cell line growth inhibition, 48 h
Activity calls are given as the source filed them. Cut-off read from the data, not from the text of the source: active = GI50 up to about 1.1 µM and inactive = higher.
Hi! Could you answer with just one of these? active, inactive

Worked examples follow.
COC(=O)C(CCCCN)NC(=O)C(CCCCN)NC(C)=O.Cc1ccc(C(=O)Nc2ccc(S(=O)(=O)O)c3cc(S(=O)(=O)O)cc(S(=O)(=O)O)c23)cc1NC(=O)c1cccc(NC(=O)Nc2cccc(C(=O)Nc3cc(C(=O)Nc4ccc(S(=O)(=O)O)c5cc(S(=O)(=O)O)cc(S(=O)(=O)O)c45)ccc3C)c2)c1 | inactive
CCOP(=O)(OCC)/C(C#N)=C/c1nccn1C | inactive
O=C1OC2C=CC1C1(CCOC1=O)C2 (stereo unspecified) | inactive

[ask] Call for entry `CC(C)C(/C=C/c1ccccc1)=N\NC(=S)NN` :
[reply] inactive

[ask] Same lookup for `Cc1ccc(/N=N/c2c(C)nn(C(=O)CC(=O)Nc3ccc(Cl)cc3)c2C)cc1C` , please.
[reply] inactive

[ask] Param item: `CNC(N)NC`
[reply] inactive

[ask] Thanks! And `CC1(C)[C@@H](Cn2cc(I)c(=O)[nH]c2=O)CC[C@@]1(C)CO` ?
[reply] inactive

---

Test system: SF-268
procedure details: NCI tumour cell line growth inhibition, 48 h
Active and inactive are the calls of the source. No stated cut-off is given here; in the data, active = GI50 up to about 1.1 µM and inactive = higher.
parameter measured: GI50

Observe how each entry below is paired with its result.
NC(=O)c1cccc([N+](=O)[O-])c1 | > 100 µM (inactive)
O=C(Nc1ccccc1)c1cc(S(=O)(=O)Nc2n[nH]c(=O)[nH]2)c(SSc2cc(Cl)c(C(=O)Nc3ccccc3)cc2S(=O)(=O)Nc2n[nH]c(=O)[nH]2)cc1Cl | > 100 µM (inactive)
O=C(Cc1ccccc1)NNc1nc(NNC(=O)c2ccncc2)nc(Nc2ccc([N+](=O)[O-])cc2)n1 | > 10 µM (inactive)

Now consider a different molecule.
[ask] Suppose we examine the molecule `COc1ccccc1NC(=O)C1=C(C)NC(C)=C(C(=O)Nc2ccccc2OC)C1c1ccc(N(C)C)cc1` ; what GI50 value has been reported?
[reply] 24.5 µM (inactive)

---

Test system: SN12C
procedure details: NCI tumour cell line growth inhibition, 48 h
The source made the active and inactive calls. Rule as the data show it: active = GI50 up to about 1.1 µM and inactive = higher.
Give one outcome, nothing more. List: active, inactive

Use these answered entries as a reference point.
O=c1c2cccnc2[nH]c2ccc3[nH]ncc3c12 | inactive
COc1ccc(-c2cc(-c3ccc(Cl)cc3)n(C3OC(CO)C(O)C(O)C3O)c(=S)c2C#N)cc1 (configuration not stated) | inactive
Clc1ccc(CSC2=NCCN2)cc1Cl | inactive

Continue with the compound presented below.
[ask] Per the assay record, what outcome was assigned to `N#Cc1c(Cl)cccc1Oc1ccc(S(=O)(=O)N/C(=N\O)Nc2ccc(Cl)cc2)cc1` ?
[reply] inactive

---

# GI50 listing for each entry below
System: UACC-257
procedure details: NCI tumour cell line growth inhibition, 48 h
Active and inactive are the calls of the source. Cut-off read from the data, not from the text of the source: active = GI50 up to about 1.1 µM and inactive = higher.

Sample records with GI50:
CCOC(=O)Oc1ccc2[nH]c3c(C)cc(N)c(C)c3c2c1 | > 100 µM (inactive)
CN1CCc2ccccc2C1Cc1ccccc1NC(=O)c1sc2ccccc2c1Cl (configuration not stated) | > 100 µM (inactive)
O=[As](O)(O)c1ccc(NCc2ccccc2)cc1 | > 100 µM (inactive)
CCOn1cc(C[C@@]2(O)C(=O)OC3[C@@H](O)CO[C@@]32O)c2ccccc21 (some centres not stated) | > 100 µM (inactive)
O=C1C2C(C(=O)N1c1ccccc1)C1(Br)c3ccccc3C2(Br)C2C(=O)N(c3ccccc3)C(=O)C21 (configuration not stated) | > 31.6 µM (inactive)

[ask] So what GI50 did COc1ccc(C2=NOC(N)(c3ccc(OC)cc3)C2)cc1 (configuration not stated) get with UACC-257?
[reply] > 100 µM (inactive)

[ask] Same lookup for `N=C1SCCS1` , please.
[reply] > 100 µM (inactive)

[ask] # iterate: `COc1ccc(/C=N/n2c(C)n[nH]c2=O)cc1`
[reply] > 100 µM (inactive)

[ask] Let us now turn to CC(CC(N)C(=O)O)C(=O)O (configuration not stated)
[reply] > 100 µM (inactive)

[ask] Cool, now `Cc1cn([C@@H]2O[C@H](CO[Si](C)(C)C(C)(C)C)[C@]3(O[C@H]3C(=O)NN)[C@H]2O[Si](C)(C)C(C)(C)C)c(=O)[nH]c1=O`
[reply] 13 µM (inactive)
